Provenance of the data: patent US20190256499A1

METHOD DESCRIPTION: Microsomal stability (intrinsic clearance), human liver microsomes
Assay type: in vitro ADME
COND: human, liver microsomes, pH 7.4, human liver microsomes
What microsomal CLint was measured for each of the following?
One number for each entry, in µL/min/mg.

# COMPOUND, OUTCOME MEASURE, REPORTED VALUE
measured = [
    ("Cn1cc([C@H](Nc2cc(-c3ccc4ccn(C)c4c3)c3nccnc3c2)c2nccn2C)cn1 (single isomer, unassigned)", "microsomal CLint", 57),
]

Data point: Cn1cc([C@@H](Nc2cc(-c3cnc4ccn(C)c4c3)c3nccnc3c2)c2cccnc2)cn1 (single isomer, unassigned) ; microsomal CLint = 67

###

METHOD DESCRIPTION: Microsomal stability (intrinsic clearance), human liver microsomes
Assay type: in vitro ADME
COND: human, liver microsomes, pH 7.4, human liver microsomes
Threshold rule: microsomal CLint greater than or equal to 80 µL/min/mg is fulfilled; below that, not fulfilled.

**Q:** Could you tell me if the measured microsomal CLint of COc1ccc(C(Nc2cc(-c3ccc4ccn(C)c4c3)c3nccnc3c2)c2cnnn2C)cn1 (racemic) [Comparative Example 1, reference compound] reaches 80 µL/min/mg or more?
**A:** fulfilled

**Q:** Reported microsomal CLint reaches at least 80 µL/min/mg for Cn1cc([C@@H](Nc2cc(-c3ccc4ccn(C)c4c3)c3nccnc3c2)c2cnnn2C)cn1 (single isomer, unassigned) ?
**A:** not fulfilled

**Q:** Test whether the compound CC(C)[C@H](Nc1cc(-c2ccc3ccn(C)c3c2)c2nccnc2c1)c1cccnc1 (single isomer, unassigned) records microsomal CLint of 80 µL/min/mg or higher.
**A:** fulfilled

**Q:** Please check the record Cn1cc([C@@H](Nc2cc(-c3ccc4ccn(C)c4c3)c3nccnc3c2)c2nccn2C)cn1 (single isomer, unassigned) and state if its microsomal CLint is at or above 80 µL/min/mg.
**A:** not fulfilled

###

Record form. Attribute: solubility at 24 h. Fill in for each entry.
METHOD DESCRIPTION: Solubility PBS (thermodynamic solubility, shake flask method)
Assay type: physicochemical
COND: phosphate buffer (PBS), aqueous buffer, thermodynamic from solid, PBS pH 7.4, 24 hours at 37° C.
One number for each entry, in µg/mL.

# MOLECULE, OUTCOME MEASURE, UNIT INFO, REPORTED VALUE
records = [
    ("Cn1cc([C@H](Nc2cc(-c3ccc4ccn(C)c4c3)c3nccnc3c2)c2cncn2C)cn1 (single isomer, unassigned)", "solubility at 24 h", "µg/mL", 4),
    ("Cn1ccc2ccc(-c3cc(NC(c4cccnc4)c4ccc(=O)[nH]n4)cc4nccnc34)cc21 (single isomer, unassigned)", "solubility at 24 h", "µg/mL", 10),
    ("COc1ccc([C@@H](Nc2cc(-c3ccc4ccn(C)c4c3)c3nccnc3c2)c2cccnc2)cn1 [Comparative Example 4, reference compound]", "solubility at 24 h", "µg/mL", 1),
]

Batch: solubility at 24 h for all items listed.
1. COc1ccc([C@@H](Nc2cc(-c3ccc4ccn(C)c4c3)c3nccnc3c2)c2cccnc2)nn1 (single isomer, unassigned)
2. Cn1cc([C@H](Nc2cc(-c3ccc4ccn(C)c4c3)c3nccnc3c2)c2cnnn2C)cn1 (single isomer, unassigned)

**A:**
1. 4
2. 80

###

METHOD DESCRIPTION: Kinetic solubility
Type: physicochemical
COND: phosphate buffer, pH 7.4, aqueous buffer, kinetic from dmso stock, phosphate buffer 20 mM pH 7.4, 2% DMSO, room temperature
Assign log10(solubility kinetic at 120 min) to each entry below.
Log10 applied to solubility kinetic at 120 min; unit prior to transform: µM.

# MOLECULE, log10(solubility kinetic at 120 min)
records = [
    ("Cn1ccc([C@@H](Nc2cc(-c3ccc4ccn(C)c4c3)c3nccnc3c2)c2cnnn2C)n1 (single isomer, unassigned)", 2.03),
    ("COc1ccc([C@H](Nc2cc(-c3ccc4ccn(C)c4c3)c3nccnc3c2)c2cccnc2)nn1 (single isomer, unassigned)", 1.26),
    ("Cn1cc([C@H](Nc2cc(-c3cnc4ccn(C)c4c3)c3nccnc3c2)c2cccnc2)cn1 (single isomer, unassigned)", 2.21),
    ("Cn1ccc2ccc(-c3cc(NC(c4cccnc4)c4ccc(=O)[nH]n4)cc4nccnc34)cc21 (single isomer, unassigned) [Example 2]", 1.79),
    ("CC(C)[C@@H](Nc1cc(-c2ccc3ccn(C)c3c2)c2nccnc2c1)c1cccnc1 (single isomer, unassigned)", 0.78),
    ("COc1ccc([C@@H](Nc2cc(-c3ccc4ccn(C)c4c3)c3nccnc3c2)c2cccnc2)cn1 [Comparative Example 4, reference compound]", 0.57),
]

Return reported log10(solubility kinetic at 120 min) values for all items listed beneath this line.
1. COc1ccc([C@H](Nc2cc(-c3ccc4ccn(C)c4c3)c3nccnc3c2)c2cnnn2C)cn1 [Comparative Example 2, reference compound]
2. Cn1ccc([C@H](Nc2cc(-c3ccc4ccn(C)c4c3)c3nccnc3c2)c2cnnn2C)n1 (single isomer, unassigned)
3. Cn1cc([C@H](Nc2cc(-c3ccc4ccn(C)c4c3)c3nccnc3c2)c2cncn2C)cn1 (single isomer, unassigned)
4. Cn1cc([C@@H](Nc2cc(-c3ccc4ccn(C)c4c3)c3nccnc3c2)c2cnnn2C)cn1 (single isomer, unassigned)
5. Cn1cc([C@H](Nc2cc(-c3ccc4ccn(C)c4c3)c3nccnc3c2)c2nccn2C)cn1 (single isomer, unassigned)
6. COc1ccc([C@@H](Nc2cc(-c3ccc4ccn(C)c4c3)c3nccnc3c2)c2cnnn2C)cn1 [Comparative Example 3, reference compound]
7. Cn1ccc2ccc(-c3cc(NC(c4cccnc4)c4ccc(=O)[nH]n4)cc4nccnc34)cc21 (stereo not shown) [Example 1]

**A:**
1. 1.34
2. 1.98
3. 2.00
4. 2.04
5. 1.56
6. 1.34
7. 1.84

###

Would you kindly list microsomal CLint for each of these compounds?
METHOD DESCRIPTION: Microsomal stability (intrinsic clearance), human liver microsomes
Format: in vitro ADME
COND: human, liver microsomes, pH 7.4, human liver microsomes
Answers are plain numbers, in µL/min/mg.

Some compounds with recorded microsomal CLint:
# COMPOUND, OUTCOME MEASURE, UNIT INFO, REPORTED VALUE
data = [
    ("Cn1cc([C@H](Nc2cc(-c3cnc4ccn(C)c4c3)c3nccnc3c2)c2cccnc2)cn1 (single isomer, unassigned)", "microsomal CLint", "µL/min/mg", 404),
    ("COc1ccc([C@@H](Nc2cc(-c3ccc4ccn(C)c4c3)c3nccnc3c2)c2cccnc2)cn1 [Comparative Example 4, reference compound]", "microsomal CLint", "µL/min/mg", 214),
    ("Cn1cc([C@H](Nc2cc(-c3ccc4ccn(C)c4c3)c3nccnc3c2)c2cncn2C)cn1 (single isomer, unassigned)", "microsomal CLint", "µL/min/mg", 130),
    ("COc1ccc([C@@H](Nc2cc(-c3ccc4ccn(C)c4c3)c3nccnc3c2)c2cnnn2C)cn1 [Comparative Example 3, reference compound]", "microsomal CLint", "µL/min/mg", 267),
    ("Cn1ccc([C@@H](Nc2cc(-c3ccc4ccn(C)c4c3)c3nccnc3c2)c2cnnn2C)n1 (single isomer, unassigned)", "microsomal CLint", "µL/min/mg", 51),
]

Please give microsomal CLint, item by item, for the list that follows.
1. COc1ccc([C@H](Nc2cc(-c3ccc4ccn(C)c4c3)c3nccnc3c2)c2cnnn2C)cn1 [Comparative Example 2, reference compound]
2. Cn1cc([C@H](Nc2cc(-c3ccc4ccn(C)c4c3)c3nccnc3c2)c2cnnn2C)cn1 (single isomer, unassigned)
3. COc1ccc([C@@H](Nc2cc(-c3ccc4ccn(C)c4c3)c3nccnc3c2)c2cccnc2)nn1 (single isomer, unassigned)
4. Cn1cc([C@H](Nc2cc(-c3ccc4ccn(C)c4c3)c3nccnc3c2)c2cccnc2)cn1 (single isomer, unassigned)
5. Cn1cc([C@@H](Nc2cc(-c3ccc4ccn(C)c4c3)c3nccnc3c2)c2cccnc2)cn1 (single isomer, unassigned)
6. Cn1ccc([C@H](Nc2cc(-c3ccc4ccn(C)c4c3)c3nccnc3c2)c2cnnn2C)n1 (single isomer, unassigned)

**A:**
1. 113
2. 50
3. 264
4. 142
5. 172
6. 132

Note to self: microsomal CLint recorded for COc1ccc([C@H](Nc2cc(-c3ccc4ccn(C)c4c3)c3nccnc3c2)c2cccnc2)nn1 (single isomer, unassigned) was 174

###

TARGET OR TEST SYSTEM: Human recombinant His-tagged PFKFB3 (Homo sapiens, UniProt Q16875)
Construct: His; made in house
Sequence (Q16875 whole entry): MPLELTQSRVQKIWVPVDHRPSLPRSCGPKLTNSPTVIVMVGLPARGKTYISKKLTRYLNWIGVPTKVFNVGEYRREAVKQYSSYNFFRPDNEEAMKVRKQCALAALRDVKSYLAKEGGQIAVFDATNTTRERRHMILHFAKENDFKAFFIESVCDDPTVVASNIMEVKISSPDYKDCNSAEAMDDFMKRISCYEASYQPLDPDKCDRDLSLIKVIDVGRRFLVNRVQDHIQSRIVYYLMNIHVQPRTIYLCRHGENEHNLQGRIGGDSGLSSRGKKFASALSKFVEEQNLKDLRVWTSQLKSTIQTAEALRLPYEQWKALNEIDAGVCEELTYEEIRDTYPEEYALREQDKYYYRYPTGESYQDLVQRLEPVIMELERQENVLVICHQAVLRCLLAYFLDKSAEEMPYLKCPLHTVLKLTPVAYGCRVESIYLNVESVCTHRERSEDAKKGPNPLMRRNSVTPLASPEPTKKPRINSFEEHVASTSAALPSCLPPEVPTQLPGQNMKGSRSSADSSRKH
METHOD DESCRIPTION: PFKFB3 IC50 determination assay (modified ADP-Glo in vitro kinase assay)
Format: biochemical
COND: human recombinant PFKFB3 25 nM, ATP 20 μM, fructose-6-phosphate 2 μM, 2 h, rt; read-out: PFKFB IC50
OUTCOME MEASURE: pIC50
One number for each entry, as −log10 of the molar value.

Look over these answered cases.
# COMPOUND, TARGET OR TEST SYSTEM, pIC50
measured = [
    ("Cn1cc([C@H](Nc2cc(-c3ccc4ccn(C)c4c3)c3nccnc3c2)c2nccn2C)cn1 (single isomer, unassigned)", "Human recombinant His-tagged PFKFB3 (Homo sapiens, UniProt Q16875)", 6.19),
    ("Cn1cc([C@@H](Nc2cc(-c3ccc4ccn(C)c4c3)c3nccnc3c2)c2nccn2C)cn1 (single isomer, unassigned)", "Human recombinant His-tagged PFKFB3 (Homo sapiens, UniProt Q16875)", 6.25),
    ("COc1ccc([C@H](Nc2cc(-c3ccc4ccn(C)c4c3)c3nccnc3c2)c2cnnn2C)cn1 [Comparative Example 2, reference compound]", "Human recombinant His-tagged PFKFB3 (Homo sapiens, UniProt Q16875)", 8.46),
    ("Cn1ccc([C@H](Nc2cc(-c3ccc4ccn(C)c4c3)c3nccnc3c2)c2cnnn2C)n1 (single isomer, unassigned)", "Human recombinant His-tagged PFKFB3 (Homo sapiens, UniProt Q16875)", 6.72),
    ("Cn1cc([C@H](Nc2cc(-c3ccc4ccn(C)c4c3)c3nccnc3c2)c2cccnc2)cn1 (single isomer, unassigned)", "Human recombinant His-tagged PFKFB3 (Homo sapiens, UniProt Q16875)", 8.19),
    ("COc1ccc([C@@H](Nc2cc(-c3ccc4ccn(C)c4c3)c3nccnc3c2)c2cccnc2)nn1 (single isomer, unassigned)", "Human recombinant His-tagged PFKFB3 (Homo sapiens, UniProt Q16875)", 8.10),
]

Hey, can you go through the list below and give me pIC50 for every item?
1. COc1ccc([C@@H](Nc2cc(-c3ccc4ccn(C)c4c3)c3nccnc3c2)c2cnnn2C)cn1 [Comparative Example 3, reference compound]
2. COc1ccc([C@@H](Nc2cc(-c3ccc4ccn(C)c4c3)c3nccnc3c2)c2cccnc2)cn1 [Comparative Example 4, reference compound]
3. Cn1cc([C@@H](Nc2cc(-c3ccc4ccn(C)c4c3)c3nccnc3c2)c2cnnn2C)cn1 (single isomer, unassigned)
4. Cn1cc([C@H](Nc2cc(-c3ccc4ccn(C)c4c3)c3nccnc3c2)c2cnnn2C)cn1 (single isomer, unassigned)
5. Cn1ccc2ccc(-c3cc(NC(c4cccnc4)c4ccc(=O)[nH]n4)cc4nccnc34)cc21 (stereo not shown) [Example 1]
6. Cn1cc([C@@H](Nc2cc(-c3ccc4ccn(C)c4c3)c3nccnc3c2)c2cncn2C)cn1 (single isomer, unassigned)
7. Cn1cc([C@@H](Nc2cc(-c3cnc4ccn(C)c4c3)c3nccnc3c2)c2cccnc2)cn1 (single isomer, unassigned)

**A:**
1. 6.28
2. 8.00
3. 7.06
4. 8.28
5. 7.49
6. 7.36
7. 5.96
